- assayDetails: MM1S cell viability effects, profiling panel, calcein-AM fluorescence, 48 h, basal (AID 1165);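 also: viability of MM1S multiple myeloma cells under basal unstimulated conditions; test concentration not given here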
- details: higher = more signal
Think of -0.3 as a floor: if z-score stands on it or above, it is Satisfied; beneath it, Not satisfied.

Query: Quick check, z-score >= -0.3? CC1(C)C2C=C(C(O)C3C=CC4C(=O)NC(=O)C4N3Nc3ccc(Cl)cc3Cl)C[C@@H]1C2 (some centres not stated)
Result: Not satisfied

Next, consider the following molecule.
Query: Quick check, z-score >= -0.3? `COC(=O)[C@@]1(Cc2ccc(F)cc2)[C@H]2c3cc(C(=O)N4CCCC4)n(CCCNc4ncc(C(F)(F)F)cc4Cl)c3C[C@H]2CN1C(=O)c1ccccc1`
Result: Not satisfied
